- Assayed target: Luciferin 4-monooxygenase (Photinus pyralis)
- Measurement protocol: inhibition of purified Photinus pyralis luciferase – biochemical, luminescence, purified enzyme, 2006 set, primary screen (AID 1141);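 also: cell-free assay with purified firefly luciferase at 100 ng per well in PBS; test concentration not given here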
- Recorded conditions: purified firefly luciferase, SteadyGlo luminescence, 30 min, called active from +8 up or from −8 down
The source made the active and inactive calls.
In this exercise, the only acceptable responses are active, inactive

Consider the following illustrative entries.
Compound	Class name
CCOC(=O)[C@H]1C/C=C/C[C@H](C(=O)OCC)C(=O)O[C@H]2[C@@H](OC)O[C@H](CO)[C@@H](OC(=O)c3ccc(Br)cc3)[C@@H]2OC1=O	inactive
CCOC(=O)C[C@H]1[C@H](OC(=O)c2ccc(-c3ccccc3)cc2)[C@@H](NC(=O)c2ccccc2)c2cc(OCCCO)ccc2N1C(=O)Cc1ccc(OC)cc1	inactive
O=C1C2C=CC(C(O)c3ccc(F)cc3)N(Nc3ccc([N+](=O)[O-])cc3)C2C(=O)N1c1ccccc1 (stereo not given)	inactive
CC(=O)Nc1cc(Br)ccc1C(=O)NCc1ccccc1	inactive
COCC(=C=CC[C@H](O)c1cccc(OCCO)c1)C[C@H](O)c1cc(Cl)cc(Cl)c1O	inactive
C=CCNC(=O)[C@@H]1[C@H]2C(=O)O[C@H](c3ccccc3)[C@H](c3ccccc3)N2[C@H](c2ccc(OCCO)cc2)[C@@]12C(=O)N(C(=O)OCCOC)c1ccc(C#CCNC(N)=O)cc12	inactive
O=C1C2C=CC(C(O)COCc3ccccc3)N(Nc3ccc([N+](=O)[O-])cc3)C2C(=O)N1c1ccccc1 (stereo not given)	inactive
CO[C@H]1O[C@H](CO)[C@@H](OC(=O)Nc2cccc(F)c2)[C@H](OC(=O)Nc2ccccc2)[C@H]1OC(=O)Nc1ccccc1	inactive
O=C1NC(=O)C2C1C=CC(C(O)c1ccc(I)cc1)N2Nc1ccc(Cl)cc1Cl (stereo not given)	inactive
CCOC(=O)C1=C[C@@H](C(C)C)N(S(=O)(=O)c2ccc(C)cc2)[C@H]1c1ccccc1F	inactive

Could you check what this test reported for COC(=O)c1c(CC[C@@H](CO)NC(=O)N[C@@H](Cc2ccccc2)Cn2cc(-c3ccccn3)nn2)oc(C(=O)N2CCOCC2)c1C(=O)OC ? inactive

Could you check what this test reported for COc1ccccc1CN1C(=O)c2ccccc2[C@@H](C(=O)NCc2ccccc2)[C@@H]1c1ccc(CO)cc1 ? inactive

Could you check what this test reported for C=CC[C@@]1(C(=O)N2CCCCC2)N=C(c2ccc(OCCCO)cc2)O[C@@H]1c1ccccc1N=[N+]=[N-] ? active

Could you check what this test reported for CC#CC(=O)Oc1ccc(Br)cc1C=CC(=O)OCC ? inactive

Could you check what this test reported for CCCNC(=O)[C@@H]1c2ccccc2C(=O)N(Cc2ccccc2OC)[C@H]1c1ccc(CO)cc1 ? inactive

Could you check what this test reported for C[N+](C)(C)CCCC[C@@H]1NC(=O)[C@@H]2C[C@H](C(=O)NCCCCCCNC(=O)CS)[C@H](c3ccc(O)cc3)N2C1=O ? inactive

====

- Assayed target: Focal adhesion kinase 1 (Homo sapiens) (UniProt Q05397)
- Sequence (Q05397 whole entry, looked up): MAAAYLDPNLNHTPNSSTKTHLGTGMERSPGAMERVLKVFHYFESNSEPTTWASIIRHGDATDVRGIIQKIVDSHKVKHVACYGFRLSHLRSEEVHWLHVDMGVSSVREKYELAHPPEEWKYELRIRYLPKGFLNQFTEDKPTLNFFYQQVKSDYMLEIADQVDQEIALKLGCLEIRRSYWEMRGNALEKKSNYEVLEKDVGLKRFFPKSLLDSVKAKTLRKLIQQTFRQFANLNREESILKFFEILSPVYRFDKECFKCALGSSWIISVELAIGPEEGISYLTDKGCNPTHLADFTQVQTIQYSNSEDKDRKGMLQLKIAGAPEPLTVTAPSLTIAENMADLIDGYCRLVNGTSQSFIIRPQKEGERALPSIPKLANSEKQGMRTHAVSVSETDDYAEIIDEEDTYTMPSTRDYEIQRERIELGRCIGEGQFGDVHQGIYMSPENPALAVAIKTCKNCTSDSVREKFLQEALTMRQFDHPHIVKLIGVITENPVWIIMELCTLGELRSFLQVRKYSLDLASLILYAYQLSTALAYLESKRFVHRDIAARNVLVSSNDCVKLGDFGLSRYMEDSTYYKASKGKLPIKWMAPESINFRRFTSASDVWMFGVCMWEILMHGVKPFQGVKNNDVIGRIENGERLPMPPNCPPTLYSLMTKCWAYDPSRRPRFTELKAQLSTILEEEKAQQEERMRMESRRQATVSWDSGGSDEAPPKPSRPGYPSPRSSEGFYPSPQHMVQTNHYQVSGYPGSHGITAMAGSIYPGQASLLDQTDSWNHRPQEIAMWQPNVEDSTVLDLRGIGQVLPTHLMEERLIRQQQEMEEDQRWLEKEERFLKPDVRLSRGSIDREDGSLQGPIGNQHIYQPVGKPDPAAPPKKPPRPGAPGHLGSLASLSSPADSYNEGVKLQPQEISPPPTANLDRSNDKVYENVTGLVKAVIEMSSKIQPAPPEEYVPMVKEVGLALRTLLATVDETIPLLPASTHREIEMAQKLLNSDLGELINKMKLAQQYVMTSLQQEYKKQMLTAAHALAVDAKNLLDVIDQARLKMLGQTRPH
- Measurement protocol: PTK2 protein binding on printed compound slides – biochemical, small-molecule microarray, 635/667 nm fluorescence, BSA, DTT, primary screen (AID 1130);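 also: composite of spot emission at 667 nm and signal to noise over triplicate slides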
- Recorded conditions: 635 nm fluorescence, higher = more signal
Measurement name: composite z-score
Just the number, please, no unit after it.

Solved entries:
Compound	composite z-score
O=C(CS)NCCCCCNC(=O)[C@@H]1C[C@@H]2C(=O)NCC(=O)N2[C@@H]1c1ccc(O)cc1	0.393
CCCCN1CC=CC23O[C@@H]4/C=C\CCCOC(=O)C4[C@H]2C(=O)N(CCCCCO)[C@@H]3C1=O (some centres undefined)	1.31
COc1ccccc1CN1C(=O)c2ccccc2[C@@]2(Cc3ccccc3N(CCCN(C)C)C2=O)[C@@H]1c1ccc(CO)cc1	-0.0228

Return reported composite z-score; argument: O=C(NC1CC1)[C@@H]1c2ccccc2C(=O)N(Cc2cc(F)cc(C(F)(F)F)c2)[C@H]1c1ccc(CO)cc1 0.315

====

- System: Neuregulin-1 EGF-like domain
- Measurement protocol: small molecules binding NRG1 EGF domain – biochemical, small-molecule microarray, 635 nm fluorescence, primary screen (AID 1081)
- Recorded conditions: higher = more signal
Measurement name: composite z-score
Just the number, please, no unit after it.

Solved entries:
Compound	Assay value
COc1ccc(NC(=O)O[C@H]2[C@H](OC(=O)c3cc4ccccc4[nH]3)[C@@H](OC(=O)c3cc4ccccc4[nH]3)[C@@H](OC)O[C@@H]2CO)cc1	0.543
COCCCNC(=O)[C@@H]1c2ccccc2C(=O)N(Cc2ccccc2OC)[C@H]1c1ccc(CO)cc1	1.34
O=C(NC1CC1)[C@@H]1c2ccccc2C(=O)N(Cc2cc(F)cc(C(F)(F)F)c2)[C@H]1c1ccc(CO)cc1	1.04
CO[C@H]1O[C@H](CO)[C@@H](OC(=O)Nc2ccc(Oc3ccccc3)cc2)[C@H](OC(=O)Nc2ccc3c(c2)OCO3)[C@@H]1OC(=O)Nc1ccc2c(c1)OCO2	1.09
COCC(=C=CC[C@H](O)c1cccc(OCCO)c1)CCO	0.711

Return reported composite z-score; argument: COc1cc(CO)cc(I)c1O[C@H]1C=C(C(=O)NCCO)C[C@@H](NC[C@@H]2CCCO2)[C@@H]1O 1.09

Return reported composite z-score; argument: COCCCNC(=O)[C@@]1(CCS(=O)(=O)c2ccccc2)N=C(c2ccc(OCCCO)cc2)O[C@H]1c1ccccc1N=[N+]=[N-] 1.23

Return reported composite z-score; argument: COCCOC(=O)N1C(=O)[C@@]2(c3cc(C#Cc4ccc(OC)cc4)ccc31)[C@H](c1ccc(O)cc1)N1[C@H](c3ccccc3)[C@H](c3ccccc3)OC(=O)[C@H]1[C@@H]2C(=O)Nc1nc2ccccc2s1 1.24

Return reported composite z-score; argument: COC(=O)[C@@]1(Cc2ccc(F)cc2)[C@H]2c3cc(C(=O)N(C)C)n(Cc4ccc(C)o4)c3C[C@H]2CN1C(=O)c1ccccc1 1.13

Return reported composite z-score; argument: COC(=O)[C@@]1(Cc2ccccc2)[C@H]2c3cc(C(=O)N(C)C)n(CCc4c[nH]c5ccc(O)cc45)c3C[C@H]2CN1C(=O)c1ccccc1 1.29

Return reported composite z-score; argument: CCN(CC)c1ccc(N2CC=CC34O[C@@H]5/C=C\CCC(C)OC(=O)C5[C@H]3C(=O)N(CCCCCO)[C@@H]4C2=O)cc1 (some centres undefined) -0.506

Return reported composite z-score; argument: C=CCOC(=O)[C@H]1[C@@H]2C(=O)O[C@@H](c3ccccc3)[C@@H](c3ccccc3)N2[C@@H](c2ccc(OCCOC(=O)[C@@H]3C[C@@H]4C(=O)N5CCC[C@H]5C(=O)N4[C@@H]3c3cccc(OCCO)c3)cc2)[C@]12C(=O)Nc1ccc(I)cc12 1.31

Return reported composite z-score; argument: O=C1OCC=C[C@H]2OC34C=CCN(CCN5CCOCC5)C(=O)[C@H]3N(CCO)C(=O)[C@@H]4[C@@H]12 (some centres undefined) 0.242

Return reported composite z-score; argument: O=C(CS)NCCCCCNC(=O)[C@H]1C[C@H]2C(=O)NCC(=O)N2[C@H]1c1cccc(OCCO)c1 0.375

Return reported composite z-score; argument: COCCCNC(=O)[C@@]1(Sc2ccc(C)cc2)CC(=O)N(Cc2ccccc2Cl)[C@@H]1c1ccc(CO)cc1 0.938

====

Each entry below carries its reported composite z-score.
- Tested on: Lefty1
- Measurement protocol: Lefty1 protein binding to printed compounds – biochemical, small-molecule microarray, 635/667 nm fluorescence, primary screen (AID 1139)
- Recorded conditions: fluorescence 635/667, higher = more signal
Just the number, please, no unit after it.

Solved entries:
COCCOC(=O)N1C(=O)[C@@]2(c3cc(C#CC4(O)CCCCCC4)ccc31)[C@H](c1ccccc1OCCO)N1[C@H](c3ccccc3)[C@H](c3ccccc3)OC(=O)[C@H]1[C@@H]2C(=O)N1CCc2cc(OC)c(OC)cc2C1 0.8
CC(C)(C)OC(=O)CC[C@]1(C(=O)NCCN2CCOCC2)COC(c2ccc(OCCCO)cc2)=N1 0.78

Shift focus to the following entry.
Return reported composite z-score; argument: CCOC(=O)C[C@H]1[C@H](OC(=O)c2ccc(C(=O)c3ccccc3)cc2)[C@@H](NC(=O)c2ccccc2)c2cc(OCCCO)ccc2N1C(=O)c1ccccc1 0.802

====

Each entry below carries its reported z-score.
- Measurement protocol: inhibition of PAO1 biofilm formation – strain PAO1, LB-PBS medium, absorbance 600 nm, primary screen (AID 1176); also: test concentration not given here
- Recorded conditions: P. aeruginosa PAO1 growth/biofilm, A600, 12 h; higher = more signal
Just the number, please, no unit after it.

Solved entries:
Molecule	z-score
COC(=O)[C@@]1(Cc2ccccc2)[C@H]2c3cc(C(=O)N4CCCC4)n(Cc4c(CO)[nH]cc(C)c4=O)c3C[C@H]2CN1C(=O)c1ccccc1	0.287
C=CCNC(=O)[C@@H]1[C@H]2C(=O)O[C@H](c3ccccc3)[C@H](c3ccccc3)N2[C@H](c2ccc(OCCO)cc2)[C@@]12C(=O)N(C(=O)OCCOC)c1ccc(C#CCNC(N)=O)cc12	0.958
O=C(NCc1ccccc1)[C@@H]1c2ccccc2C(=O)N(C2Cc3ccccc3C2)[C@H]1c1ccc(CO)cc1	0.581
O=C1NC(=O)C2C1C=CC(C(O)c1ccc(I)cc1)N2Nc1ccccn1 (stereo unspecified)	1.48
C[N+](C)(C)CCCCCCNC(=O)[C@H]1C[C@H]2C(=O)N[C@@H](Cc3ccccc3)C(=O)N2[C@H]1c1cccc(OCCO)c1	0.255

Return reported z-score; argument: COC(=O)[C@@]1(Cc2ccc(OC)cc2)[C@H]2c3cc(C(=O)N4CCCC4)n(CCc4ccc(O)c(O)c4)c3C[C@H]2CN1C(=O)c1ccccc1 2.16

Return reported z-score; argument: CCOC(=O)C1=CC[C@@H](c2ccccc2)N(S(=O)(=O)c2ccc(C)cc2)[C@H]1c1ccc(CC)cc1 0.806

Return reported z-score; argument: C=C[C@H](C)[C@@H](OC(=O)Nc1ccc(SC)cc1)c1ccc(O)c2ccccc12 0.908
